List of cell viability values.
System: MV4-11
Experiment: cell viability (% survival relative to DMSO control, bortezomib = 0%); higher = less cytotoxic
Details: 1000 nM; 72 h
# output: bare number, implied unit %

// known answers, use as guide
molecule: CN(CCCOc1ccc(Cc2ccccc2)cc1)CCC(=O)O
cell viability / %: 125

molecule: Cc1c(Cl)cccc1S(=O)(=O)Nc1nc(CC(=O)N2CCN(C)CC2)cs1 [BVT-2733]
cell viability / %: 108

molecule: COc1ccc2c(NC(=O)Nc3cccc(C(F)(F)F)n3)ccnc2c1
cell viability / %: 85.7

molecule: O=C(/C=C/c1ccc(O)c(O)c1)OCCc1ccccc1 [Caffeic acid phenethyl ester]
cell viability / %: 65

molecule: CN1CCN(CCCN2c3ccccc3Sc3ccc(C(F)(F)F)cc32)CC1 [Trifluoperazine]
cell viability / %: 89.9

molecule: N#C/C(=C\c1ccc(O)cc1)C(=O)O [alpha-cyano-4-hydroxycinnamic acid]
cell viability / %: 100

Q: cell viability for C[C@]12C=CC(=O)C=C1CC[C@@H]1[C@@H]2[C@@H](O)C[C@@]2(C)[C@H]1CC[C@]2(O)C(=O)CO [Prednisolone] ?
A: 142

Q: Query C=CCN(C)CCCCCCOc1ccc(C(=O)c2ccc(Br)cc2)c(F)c1.O=C(O)/C=C/C(=O)O [Ro 48-8071 fumarate] next
A: 83.4

Sourced from the supplement of paper PMC8671470
